- Test Details: Inhibition of rat brain sodium/potassium-transporting ATPase in presence of Mg2+ and Na+
- Experimental Setup: read-out: I50
pIC50: −log10 of the molar value.
Measured Metric: pIC50

{"Chemical Structure": "C[C@]12CC[C@H](O)C[C@H]1CC[C@H]1C3=CC[C@H](C4=CC(=O)OC4)[C@@]3(C)CC[C@@H]12", "Readout Qualifier": "=", "Measured Value": 4.20}
{"Chemical Structure": "C[C@]12CC[C@H](O)C[C@H]1CC[C@@H]1[C@@H]2CC[C@]2(C)[C@@H](C3=CC(=O)OC3)CC[C@]12O", "Readout Qualifier": "=", "Measured Value": 6.34}
{"Chemical Structure": "C[C@@H]1O[C@@H](O[C@H]2C[C@@H](O)[C@]3(CO)[C@H]4[C@H](O)C[C@]5(C)[C@@H](C6=CC(=O)OC6)CC[C@]5(O)[C@@H]4CC[C@]3(O)C2)[C@H](O)[C@H](O)[C@H]1O", "Readout Qualifier": "=", "Measured Value": 6.30}
{"Chemical Structure": "C[C@H]1O[C@@H](O[C@H]2[C@@H](O)C[C@H](O[C@H]3[C@@H](O)C[C@H](O[C@H]4CC[C@@]5(C)[C@H](CC[C@@H]6[C@@H]5CC[C@]5(C)[C@@H](C7=CC(=O)OC7)CC[C@]65O)C4)O[C@@H]3C)O[C@@H]2C)C[C@H](O)[C@@H]1O", "Readout Qualifier": "=", "Measured Value": 6.15}
{"Chemical Structure": "C=C1C(=O)OC[C@H]1[C@H]1CC=C2[C@@H]3CC[C@@H]4C[C@@H](O)CC[C@]4(C)[C@H]3CC[C@@]21C", "Readout Qualifier": "<", "Measured Value": 4.00}

###

- Test Details: Inhibition of rat brain sodium/potassium-transporting ATPase after 10 mins in presence of Mg2+ and Na+
- Experimental Setup: read-out: I50
// IC50 lookup, one value per entry

{"Chemical Structure": "C=C1C(=O)OC[C@H]1[C@H]1CC=C2[C@@H]3CC[C@@H]4C[C@@H](O)CC[C@]4(C)[C@H]3CC[C@@]21C", "Readout Qualifier": ">", "IC50 / nM": 100000}
{"Chemical Structure": "C[C@]12CC[C@H](O)C[C@H]1CC[C@@H]1[C@@H]2CC[C@]2(C)[C@@H](C3=CC(=O)OC3)CC[C@]12O", "Readout Qualifier": "=", "IC50 / nM": 500}
{"Chemical Structure": "C[C@@H]1O[C@@H](O[C@H]2C[C@@H](O)[C@]3(CO)[C@H]4[C@H](O)C[C@]5(C)[C@@H](C6=CC(=O)OC6)CC[C@]5(O)[C@@H]4CC[C@]3(O)C2)[C@H](O)[C@H](O)[C@H]1O", "Readout Qualifier": "=", "IC50 / nM": 40}
{"Chemical Structure": "C[C@H]1O[C@@H](O[C@H]2[C@@H](O)C[C@H](O[C@H]3[C@@H](O)C[C@H](O[C@H]4CC[C@@]5(C)[C@H](CC[C@@H]6[C@@H]5CC[C@]5(C)[C@@H](C7=CC(=O)OC7)CC[C@]65O)C4)O[C@@H]3C)O[C@@H]2C)C[C@H](O)[C@@H]1O", "Readout Qualifier": "=", "IC50 / nM": 240}
{"Chemical Structure": "C[C@]12CC[C@H](O)C[C@H]1CC[C@H]1C3=CC[C@H](C4=CC(=O)OC4)[C@@]3(C)CC[C@@H]12", "Readout Qualifier": "=", "IC50 / nM": 40000}
